Source of measurements: PubChem BioAssay (NCI)

Assay: NCI Yeast Anticancer Drug Screen. Data for the sgs1 mgt1 strain (AID 161)
Conditions: S. cerevisiae sgs1 mgt1 strain, at 50.0 µM, stronger effect = higher value
This is part of a sample that, as a whole, favours compounds with a hit. Of some 79,000 tested, about 15% had one in any assay.
Range-based classes on measured growth inhibition: lower band (below 50%), central band (50% to below 90%), upper band (90% or more)

CCC(=O)C(CCN(CC)CC)(CCN(CC)CC)c1ccccc1 ... lower band

Task item: Which growth inhibition category applies to `O=c1c2ccccc2c2ccccc2c(=O)n1-c1cc2c3ccccc3ccc2c2ccccc12` here?
Reply: lower band

Task item: Which growth inhibition category applies to C=C1C(=O)OC2/C=C(\C(=O)O)CC/C=C(\C)CC(OC(=O)/C=C(\C)CC)C12 (centres undefined) here?
Reply: central band

Task item: Which growth inhibition category applies to `Cc1cc(CC(O)(C(F)(F)F)C(F)(F)F)cc(CC(O)(C(F)(F)F)C(F)(F)F)n1` here?
Reply: upper band

Task item: Which growth inhibition category applies to `CC(C)c1ccc(CN(CCO)Cc2ccc(C(C)C)cc2)cc1` here?
Reply: upper band

Task item: Which growth inhibition category applies to CCCCOC(c1ccccc1)N1CCCCC1 (centres undefined) here?
Reply: lower band
